measured target: HSV-1 ribonucleotide reductase (Human herpesvirus 1)
Construct: HSV-1 ribonucleotide reductase (partially purified) was obtained from quiescent BHK-21/C13 cells infected with strain F HSV-1 virus; made in house; host or cells: quiescent BHK-21/C13 cells infected with HSV-1 strain F (virus-encoded enzyme, partially purified)
procedure text: Inhibition of Herpes Simplex Virus (HSV-1) ribonucleotide reductase
Format: biochemical
condition notes: Table IV; assay of example 10
From the text: Inhibition of Herpes Simplex Virus (HSV-1) Ribonucleotide Reductase • a) Preparation of Enzyme HSV-1 ribonucleotide reductase (partially purified) was obtained from quiescent BHK-21/C13 cells infected with strain F HSV-1 virus at 10 plaque forming units/cell as described by E.A. Cohen et al., J. Gen. […]
IC50 vs 400 nM: less than gives Criterion met; not less than gives Criterion not met.

# molecule, class name
measured = [
    ("CCCC(CCC)NC(=O)NC(C(=O)CC(CC(=O)C(C)(C)C)C(=O)NC(C(=O)NC1CCCC1(C)C)C1(C(=O)O)CCCC1)C(C)(C)C (centres unmarked)", "Criterion met"),
    ("CCCC(CCC)NC(=O)NC(C(=O)CC(CC(=O)C(C)(C)C)C(=O)NC(C(=O)NC1CCCCC1C)C1(C(=O)O)CCCC1)C(C)(C)C (centres unmarked)", "Criterion not met"),
    ("CCCC(CCC)NC(=O)NC(C(=O)CC(CC(=O)C(C)(C)C)C(=O)NC(C(=O)NC(C)C(CC)CC)C1(C(=O)O)CCCC1)C(C)(C)C [Pr2CHNHC(O) / NH-(R)-CH(Me)CHEt2]", "Criterion met"),
]

Consider the record given below.
Hello, I'm reviewing records and need to know if IC50 of CCCC(C)(CCC)NC(=O)NC(C(=O)CC(CC(=O)C(C)(C)C)C(=O)NC(C(=O)NCC(C)(C)CC)C1(C(=O)O)CCCC1)C(C)(C)C (centres unmarked) [MePr2CHNHC(O) / NHCH2CMe2Et] is below 400 nM. Could you check?
Criterion met

====

Let's look at some compounds and their measured IC50.
measured target: HSV-1 ribonucleotide reductase (Human herpesvirus 1, UniProt P08543)
Construct: HSV-1 ribonucleotide reductase (partially purified) was obtained from quiescent BHK-21/C13 cells infected with strain F HSV-1 virus; made in house; host or cells: quiescent BHK-21/C13 cells infected with HSV-1 strain F (virus-encoded enzyme, partially purified)
Sequence (P08543 whole entry): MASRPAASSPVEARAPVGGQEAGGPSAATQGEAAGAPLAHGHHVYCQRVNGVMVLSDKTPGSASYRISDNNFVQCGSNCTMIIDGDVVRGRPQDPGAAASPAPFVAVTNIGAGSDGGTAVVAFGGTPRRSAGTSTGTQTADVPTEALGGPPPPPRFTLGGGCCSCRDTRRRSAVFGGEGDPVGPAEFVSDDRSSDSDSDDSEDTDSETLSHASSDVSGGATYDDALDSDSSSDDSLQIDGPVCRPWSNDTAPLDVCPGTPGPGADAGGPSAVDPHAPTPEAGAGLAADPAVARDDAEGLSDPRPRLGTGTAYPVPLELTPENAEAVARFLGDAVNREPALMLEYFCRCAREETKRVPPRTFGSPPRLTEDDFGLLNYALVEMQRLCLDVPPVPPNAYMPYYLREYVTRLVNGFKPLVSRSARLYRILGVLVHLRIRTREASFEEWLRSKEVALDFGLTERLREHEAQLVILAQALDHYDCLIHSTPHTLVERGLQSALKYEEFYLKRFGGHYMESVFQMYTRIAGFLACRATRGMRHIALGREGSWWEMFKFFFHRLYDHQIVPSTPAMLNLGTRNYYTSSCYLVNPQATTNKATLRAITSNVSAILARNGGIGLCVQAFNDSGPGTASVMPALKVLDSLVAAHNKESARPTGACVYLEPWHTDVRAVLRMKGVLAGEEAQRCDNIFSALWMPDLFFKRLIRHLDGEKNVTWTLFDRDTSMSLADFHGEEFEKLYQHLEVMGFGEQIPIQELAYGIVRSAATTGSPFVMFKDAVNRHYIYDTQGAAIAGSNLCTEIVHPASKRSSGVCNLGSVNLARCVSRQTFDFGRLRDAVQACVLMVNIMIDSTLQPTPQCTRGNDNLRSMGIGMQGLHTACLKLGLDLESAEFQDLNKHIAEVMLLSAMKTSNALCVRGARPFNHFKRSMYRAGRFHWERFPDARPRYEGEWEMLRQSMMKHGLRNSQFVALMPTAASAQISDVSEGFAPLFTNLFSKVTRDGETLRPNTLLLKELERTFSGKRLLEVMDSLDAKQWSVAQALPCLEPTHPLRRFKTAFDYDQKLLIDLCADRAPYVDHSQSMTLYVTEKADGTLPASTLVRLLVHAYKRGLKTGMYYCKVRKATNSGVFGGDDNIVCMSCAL
procedure text: Inhibition of Herpes Simplex Virus (HSV-1) ribonucleotide reductase
Format: biochemical
condition notes: Table IV; assay of example 10
# unit: nM | format: bare number

Would you please look over these solved cases?
# compound, IC50 / nM
measured = [
    ("CCCC(CCC)NC(=O)NC(C(=O)CC(CC(=O)C(C)(C)C)C(=O)NC(C(=O)NCC1CCCCC1)C1(C(=O)O)CCCC1)C(C)(C)C (centres unmarked)", 360),
    ("CCCC(CCC)NC(=O)NC(C(=O)CC(CC(=O)C(C)(C)C)C(=O)NC(C(=O)NCCC(C)(C)C)C1(C(=O)O)CCCC1)C(C)(C)C (centres unmarked)", 580),
    ("CCCC(CCC)NC(=O)NC(C(=O)CC(CC(=O)C(C)(C)C)C(=O)NC(C(=O)NC(C)C(C)(C)CC)C1(C(=O)O)CCCC1)C(C)(C)C (centres unmarked)", 500),
    ("CCCC(C)(CCC)NC(=O)N[C@H](C(=O)C[C@@H](CC(=O)C(C)(C)C)C(=O)N[C@H](C(=O)NCC(C)(C)C)C1(C(=O)O)CCCC1)C(C)(C)C", 280),
]

Value lookup for IC50; key = CCCCC(CCCC)NC(=O)NC(C(=O)CC(CC(=O)C(C)(C)C)C(=O)NC(C(=O)NCC(C)(C)C)C1(C(=O)O)CCCC1)C(C)(C)C (centres unmarked)
530
